target: complement protein C3 of cynomolgus monkey plasma
Readout Type: ED50 80% cynomolgus plasma (nM), C3 cleavage, C3 ELISA

>>> value_measured("Q38H/I41A/D60bT/F60eK/Y60gW/F97T/ins97aE/T98G/F99L/C122S/G151N/Q175L/Q192D (protein) VVGGTDADEGEWPWQVSLHALGHGHACGASLISPNWLVSAAHCYIDTRGKRWSDPTQWTAFLGLHDQSQRSAPGVQERRLKRIISHPFFNDTEGLDYDIALLELEKPAEYSSMVRPISLPDASHVFPAGKAIWVTGWGHTQYGGTNALILQKGEIRVINQTTCENLLPQLITPRMMCVGFLSGGVDSCDGDSGGPLSSVEADGRIFQAGVVSWGDGCAQRNKPGVYTRLPLFRDWIKENTGV")
195
>>> value_measured("Q38H/I41A/D60bV/F60eR/Y60gW/F97T/ins97aE/T98G/F99L/C122S/G151H/Q175L/Q192D (protein) VVGGTDADEGEWPWQVSLHALGHGHACGASLISPNWLVSAAHCYIDVRGRRWSDPTQWTAFLGLHDQSQRSAPGVQERRLKRIISHPFFNDTEGLDYDIALLELEKPAEYSSMVRPISLPDASHVFPAGKAIWVTGWGHTQYGGTHALILQKGEIRVINQTTCENLLPQLITPRMMCVGFLSGGVDSCDGDSGGPLSSVEADGRIFQAGVVSWGDGCAQRNKPGVYTRLPLFRDWIKENTGV")
133
>>> value_measured("Q38H/I41S/D60bT/F60eS/Y60gW/D96K/F97G/ins97aV/T98P/F99L/C122S/G151H/Q175L/Q192D (protein) VVGGTDADEGEWPWQVSLHALGHGHSCGASLISPNWLVSAAHCYIDTRGSRWSDPTQWTAFLGLHDQSQRSAPGVQERRLKRIISHPFFNKGVPLDYDIALLELEKPAEYSSMVRPISLPDASHVFPAGKAIWVTGWGHTQYGGTHALILQKGEIRVINQTTCENLLPQLITPRMMCVGFLSGGVDSCDGDSGGPLSSVEADGRIFQAGVVSWGDGCAQRNKPGVYTRLPLFRDWIKENTGV")
92
